Provenance of the data: paper PMC12028158

# maps each entry to its activity at 10 µM
- Test system: HCT-116
- procedureDetails: NCI60 one-dose screen
- Type: cell-based
- recordedConditions: Homo sapiens, HCT-116, read-out: Growth percent
The reply should read as a number followed by its unit.

CC[C@]12C=CCN3CC[C@@]4(c5ccc(OC)cc5N(C)[C@H]4[C@@](O)(C(=O)OC)[C@@H]1OC(=O)CCCC[P+](c1ccc(OC)cc1)(c1ccc(OC)cc1)c1ccc(OC)cc1)[C@@H]32 [10b]; -94.9%
CC[C@]12C=CCN3CC[C@@]4(c5ccc(OC)cc5N(C)[C@H]4[C@@](O)(C(=O)OC)[C@@H]1OC(=O)CCCC[P+](c1ccc(C)cc1)(c1ccc(C)cc1)c1ccc(C)cc1)[C@@H]32 [10a]; -93.5%

Proceed to the following item.
Prompt: Quick one: activity at 10 µM of "CC[C@]12C=CCN3CC[C@@]4(c5ccc(OC)cc5N(C)[C@H]4[C@@](O)(C(=O)OC)[C@@H]1OC(=O)CCC[P+](C1CCCCC1)(C1CCCCC1)C1CCCCC1)[C@@H]32" ?
Completion: 0.16%

----------
- Tested on: CCRF-CEM
- procedureDetails: NCI60 one-dose screen
- Type: cell-based
- recordedConditions: Homo sapiens, read-out: Growth percent
Sorting guide: entries reporting activity at 10 µM beneath -60% go in the rule met pile, the rest go in the rule not met pile.

CC[C@]12C=CCN3CC[C@@]4(c5ccc(OC)cc5N(C)[C@H]4[C@@](O)(C(=O)OC)[C@@H]1OC(=O)CCC[P+](c1ccccc1)(c1ccccc1)c1ccccc1OC)[C@@H]32; rule not met
CC[C@]12C=CCN3CC[C@@]4(c5ccc(OC)cc5N(C)[C@H]4[C@@](O)(C(=O)OC)[C@@H]1OC(=O)CCCC[P+](c1ccccc1)(c1ccccc1)c1ccccc1)[C@@H]32 [compound 4, reference compound]; rule not met
CC[C@]12C=CCN3CC[C@@]4(c5ccc(OC)cc5N(C)[C@H]4[C@@](O)(C(=O)OC)[C@@H]1OC(=O)CCC[P+](C1CCCCC1)(C1CCCCC1)C1CCCCC1)[C@@H]32; rule not met
CC[C@]12C=CCN3CC[C@@]4(c5ccc(OC)cc5N(C)[C@H]4[C@@](O)(C(=O)OC)[C@@H]1OC(=O)CCC[P+](c1ccc(F)cc1)(c1ccc(F)cc1)c1ccc(F)cc1)[C@@H]32; rule not met
CCC12C=CCN3CC[C@@]4(c5ccc(OC)cc5N(C)[C@H]4[C@@](O)(C(=O)OC)[C@@H]1OC(C)=O)[C@@H]32 (stereo partly drawn); rule not met
CC[C@]12C=CCN3CC[C@@]4(c5ccc(OC)cc5N(C)[C@H]4[C@@](O)(C(=O)OC)[C@@H]1OC(=O)CCCC[P+](c1ccc(C)cc1)(c1ccc(C)cc1)c1ccc(C)cc1)[C@@H]32 [10a]; rule met

Turning now to a further molecule:
Prompt: In plain terms, does CCC12C=CCN3CCC4(c5ccc(OC)cc5N(C)C4C(O)(C(=O)OC)C1OC(=O)CCC[P+](c1ccc(C)cc1)(c1ccc(C)cc1)c1ccc(C)cc1)C32 (stereo not drawn) come in under -60% for activity at 10 µM?
Completion: rule met

----------
- Test system: DU-145
- procedureDetails: NCI60 five-dose screen
- Type: cell-based
- recordedConditions: Homo sapiens, DU-145
# maps each entry to its GI50
Write it as a number; the unit µM goes unstated.

Here is how some molecules turned out for GI50.
CC[C@]12C=CCN3CC[C@@]4(c5ccc(OC)cc5N(C)[C@H]4[C@@](O)(C(=O)OC)[C@@H]1OC(=O)CCCC[P+](c1ccccc1)(c1ccccc1)c1ccccc1)[C@@H]32 [compound 4, reference compound]; 0.763
CC[C@]12C=CCN3CC[C@@]4(c5ccc(OC)cc5N(C)[C@H]4[C@@](O)(C(=O)OC)[C@@H]1OC(=O)CCCC[P+](c1ccc(OC)cc1)(c1ccc(OC)cc1)c1ccc(OC)cc1)[C@@H]32 [10b]; 16
CC[C@]12C=CCN3CC[C@@]4(c5ccc(OC)cc5N(C)[C@H]4[C@@](O)(C(=O)OC)[C@@H]1OC(=O)CCC[P+](C1CCCCC1)(C1CCCCC1)C1CCCCC1)[C@@H]32; 3.75
CC[C@]12C=CCN3CC[C@@]4(c5ccc(OC)cc5N(C)[C@H]4[C@@](O)(C(=O)OC)[C@@H]1OC(=O)CCCC[P+](C1CCCCC1)(C1CCCCC1)C1CCCCC1)[C@@H]32 [10d]; 3.65

Proceed to the following item.
Prompt: Quick one: GI50 of CC[C@]12C=CCN3CC[C@@]4(c5ccc(OC)cc5N(C)[C@H]4[C@@](O)(C(=O)OC)[C@@H]1OC(=O)CCCC[P+](c1ccc(C)cc1)(c1ccc(C)cc1)c1ccc(C)cc1)[C@@H]32 [10a] ?
Completion: 1.15

----------
- Tested on: SF-268
- procedureDetails: NCI60 one-dose screen
- Assay type: cell-based
- recordedConditions: Homo sapiens; SF-268, 10 μM, one-dose; read-out: Growth percent
# maps each entry to its activity at 10 µM
Write it as a number; the unit % goes unstated.

Here is how some compounds turned out for activity at 10 µM.
CC[C@]12C=CCN3CC[C@@]4(c5ccc(OC)cc5N(C)[C@H]4[C@@](O)(C(=O)OC)[C@@H]1OC(=O)CCC[P+](c1ccccc1)(c1ccccc1)c1ccccc1)[C@@H]32 [compound 3, reference compound]; 19.2
CC[C@]12C=CCN3CC[C@@]4(c5ccc(OC)cc5N(C)[C@H]4[C@@](O)(C(=O)OC)[C@@H]1OC(=O)CCC[P+](c1cc(C)c(OC)c(C)c1)(c1cc(C)c(OC)c(C)c1)c1cc(C)c(OC)c(C)c1)[C@@H]32 [9e]; -97.6
CC[C@]12C=CCN3CC[C@@]4(c5ccc(OC)cc5N(C)[C@H]4[C@@](O)(C(=O)OC)[C@@H]1OC(=O)CCC[P+](c1ccc(OC)cc1)(c1ccc(OC)cc1)c1ccc(OC)cc1)[C@@H]32 [9b]; -34.3
CC[C@]12C=CCN3CC[C@@]4(c5ccc(OC)cc5N(C)[C@H]4[C@@](O)(C(=O)OC)[C@@H]1OC(=O)CCCC[P+](c1ccc(F)cc1)(c1ccc(F)cc1)c1ccc(F)cc1)[C@@H]32 [10c]; 28.1

Proceed to the following item.
Prompt: Quick one: activity at 10 µM of CCC12C=CCN3CCC4(c5ccc(OC)cc5N(C)C4C(O)(C(=O)OC)C1OC(=O)c1ccc(C[P+](c4ccccc4)(c4ccccc4)c4ccccc4)cc1)C32 (centres unmarked) [compound 12] ?
Completion: -26.1

----------
# maps each entry to its GI50
- Test system: SK-MEL-28
- procedureDetails: NCI60 five-dose screen
- Type: cell-based
- recordedConditions: Homo sapiens, SK-MEL-28
Write it as a number; the unit µM goes unstated.

CCC12C=CCN3CCC4(c5ccc(OC)cc5N(C)C4C(O)(C(=O)OC)C1OC(=O)CCC[P+](c1ccc(C)cc1)(c1ccc(C)cc1)c1ccc(C)cc1)C32 (stereo not drawn); 0.361

Prompt: Quick one: GI50 of "CC[C@]12C=CCN3CC[C@@]4(c5ccc(OC)cc5N(C)[C@H]4[C@@](O)(C(=O)OC)[C@@H]1OC(=O)CCC[P+](C1CCCCC1)(C1CCCCC1)C1CCCCC1)[C@@H]32" ?
Completion: 1.08

Prompt: Quick one: GI50 of "CC[C@]12C=CCN3CC[C@@]4(c5ccc(OC)cc5N(C)[C@H]4[C@@](O)(C(=O)OC)[C@@H]1OC(=O)CCC[P+](c1ccc(F)cc1)(c1ccc(F)cc1)c1ccc(F)cc1)[C@@H]32" ?
Completion: 5.34

----------
# maps each entry to its GI50
- Tested on: RPMI-8226
- procedureDetails: NCI60 five-dose screen
- Assay type: cell-based
- recordedConditions: Homo sapiens, RPMI-8226
Write it as a number; the unit nM goes unstated.

CCC12C=CCN3CCC4(c5ccc(OC)cc5N(C)C4C(O)(C(=O)OC)C1OC(=O)CCC[P+](c1ccc(C)cc1)(c1ccc(C)cc1)c1ccc(C)cc1)C32 (stereo not drawn); 186

Prompt: Quick one: GI50 of CC[C@]12C=CCN3CC[C@@]4(c5ccc(OC)cc5N(C)[C@H]4[C@@](O)(C(=O)OC)[C@@H]1OC(=O)CCCC[P+](C1CCCCC1)(C1CCCCC1)C1CCCCC1)[C@@H]32 [10d] ?
Completion: 412

Prompt: Quick one: GI50 of CC[C@]12C=CCN3CC[C@@]4(c5ccc(OC)cc5N(C)[C@H]4[C@@](O)(C(=O)OC)[C@@H]1OC(=O)CCCC[P+](c1ccc(OC)cc1)(c1ccc(OC)cc1)c1ccc(OC)cc1)[C@@H]32 [10b] ?
Completion: 299

----------
- Tested on: Melanoma panel
- procedureDetails: NCI60 five-dose screen, panel mean
- Format: cell-based
- recordedConditions: Homo sapiens, read-out: Mean GI50
# maps each entry to its GI50
Write it as a number; the unit µM goes unstated.

Here is how some molecules turned out for GI50.
CC[C@]12C=CCN3CC[C@@]4(c5ccc(OC)cc5N(C)[C@H]4[C@@](O)(C(=O)OC)[C@@H]1OC(=O)CCC[P+](c1ccccc1)(c1ccccc1)c1ccccc1OC)[C@@H]32 [9f]; 0.49
CC[C@]12C=CCN3CC[C@@]4(c5ccc(OC)cc5N(C)[C@H]4[C@@](O)(C(=O)OC)[C@@H]1OC(=O)CCC[P+](C1CCCCC1)(C1CCCCC1)C1CCCCC1)[C@@H]32 [9d]; 1.7
CC[C@]12C=CCN3CC[C@@]4(c5ccc(OC)cc5N(C)[C@H]4[C@@](O)(C(=O)OC)[C@@H]1OC(=O)CCC[P+](c1ccc(F)cc1)(c1ccc(F)cc1)c1ccc(F)cc1)[C@@H]32 [9c]; 8.13

Proceed to the following item.
Prompt: Quick one: GI50 of CCC12C=CCN3CCC4(c5ccc(OC)cc5N(C)C4C(O)(C(=O)OC)C1OC(=O)CCC[P+](c1ccc(C)cc1)(c1ccc(C)cc1)c1ccc(C)cc1)C32 (stereo not shown) [9a] ?
Completion: 0.35
